# assay system: Na(+)/dicarboxylate cotransporter 3 (Homo sapiens)
# Sequence (Q8WWT9 whole entry): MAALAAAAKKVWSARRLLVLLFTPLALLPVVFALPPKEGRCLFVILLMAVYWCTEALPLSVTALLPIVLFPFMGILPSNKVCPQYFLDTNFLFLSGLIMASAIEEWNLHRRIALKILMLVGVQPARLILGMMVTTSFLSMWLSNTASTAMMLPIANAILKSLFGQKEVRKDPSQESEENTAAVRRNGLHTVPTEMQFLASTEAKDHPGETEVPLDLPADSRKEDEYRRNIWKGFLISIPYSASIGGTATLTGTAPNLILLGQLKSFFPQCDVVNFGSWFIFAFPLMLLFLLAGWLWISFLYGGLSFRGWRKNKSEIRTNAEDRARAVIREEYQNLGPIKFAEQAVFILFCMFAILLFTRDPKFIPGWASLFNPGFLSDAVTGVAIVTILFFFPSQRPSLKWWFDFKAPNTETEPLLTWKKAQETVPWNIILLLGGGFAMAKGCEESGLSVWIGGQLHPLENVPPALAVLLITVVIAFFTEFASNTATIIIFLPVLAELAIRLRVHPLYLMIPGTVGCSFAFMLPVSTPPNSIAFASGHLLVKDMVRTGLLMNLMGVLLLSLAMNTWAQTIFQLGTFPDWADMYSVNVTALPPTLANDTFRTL
# assay comment: Inhibition of NaDC3 (unknown origin) expressed in HEK293 cells assessed as inhibition of [14C]citrate uptake by microbeta plate reader analysis
# Format: cell-based
# stated conditions: read-out: IC50
experimental readout: pIC50
Would you please state pIC50, meaning minus log10 of the concentration in mol/L, as a bare number?

Query: Provide one value: measured pIC50 of COc1ncc(C)cc1CC[C@@](O)(CC(=O)O)C(=O)O
Result: 4.85

###

# assay system: Na(+)/citrate cotransporter (Homo sapiens, UniProt Q86YT5)
# Sequence (Q86YT5 whole entry): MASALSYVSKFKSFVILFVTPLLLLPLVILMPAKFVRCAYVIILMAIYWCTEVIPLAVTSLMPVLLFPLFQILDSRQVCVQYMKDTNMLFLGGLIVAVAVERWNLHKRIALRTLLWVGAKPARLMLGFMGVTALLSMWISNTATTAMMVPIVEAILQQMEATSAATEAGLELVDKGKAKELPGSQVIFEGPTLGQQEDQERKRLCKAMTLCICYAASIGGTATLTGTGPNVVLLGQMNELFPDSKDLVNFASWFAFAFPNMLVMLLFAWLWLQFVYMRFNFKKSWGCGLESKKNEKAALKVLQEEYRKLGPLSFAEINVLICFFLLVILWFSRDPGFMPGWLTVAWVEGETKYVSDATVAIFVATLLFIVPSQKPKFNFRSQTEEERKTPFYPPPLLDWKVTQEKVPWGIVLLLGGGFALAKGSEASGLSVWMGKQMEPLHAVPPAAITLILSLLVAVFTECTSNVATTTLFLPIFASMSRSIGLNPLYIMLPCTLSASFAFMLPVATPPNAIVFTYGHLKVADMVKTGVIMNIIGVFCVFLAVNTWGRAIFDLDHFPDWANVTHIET
# assay comment: Inhibition of NaCT (unknown origin) expressed in HEK293 cells assessed as inhibition of [14C]citrate uptake by microbeta plate reader analysis
# Type: cell-based
# stated conditions: read-out: IC50
experimental readout: pIC50
Would you please state pIC50, meaning minus log10 of the concentration in mol/L, as a bare number?

Query: Provide one value: measured pIC50 of CC(C)Oc1ncccc1CCC(O)(CC(=O)O)C(=O)O (racemic)
Result: 6.48

Query: Provide one value: measured pIC50 of COc1ncc(C)cc1CC[C@@](O)(CC(=O)O)C(=O)O
Result: 6.29

Query: Provide one value: measured pIC50 of CCOc1ncccc1CC[C@@](O)(CC(=O)O)C(=O)O
Result: 6.96

Query: Provide one value: measured pIC50 of COc1ncc(C)cc1CCC(O)(CC(=O)O)C(=O)O (racemic)
Result: 6.19

###

Field: AUC(0-t). Provide a value for each of the molecules that follow.
# assay comment: AUC(0 to t) in Wistar Han rat at 5 mg/kg, po by LC-MS/MS analysis
# Type: ADME, organism-based
# stated conditions: in vivo
Express the result in ng·h/mL but write the number alone.

Query: Provide one value: measured AUC(0-t) of CC(C)(C)c1ccc(CCC(O)(CC(=O)O)C(=O)O)cc1 (racemic)
Result: 1850

Query: Provide one value: measured AUC(0-t) of CCOc1ncccc1CC[C@@](O)(CC(=O)O)C(=O)O
Result: 2650

Query: Provide one value: measured AUC(0-t) of COc1ncc(C)cc1CC[C@@](O)(CC(=O)O)C(=O)O
Result: 4890

Query: Provide one value: measured AUC(0-t) of CC(C)(C)c1ccc(CC[C@@](O)(CC(=O)O)C(=O)O)cc1
Result: 2570

Query: Provide one value: measured AUC(0-t) of COc1ncc(C)cc1CC[C@](O)(CC(=O)O)C(=O)O
Result: 499
